Would you kindly list Selectivity Index for each of these molecules?
test: Selectivity index, ratio of IC50 for african green monkey Vero cells to MIC for Mycobacterium tuberculosis H37Rv
Type: functional

What does the data say about its Selectivity Index? Entry: CCOC(=O)C1=C(C)NC(=S)NC1c1cn(-c2ccccc2)nc1-c1ccc([N+](=O)[O-])cc1 (centres undefined)
>3.2

Please do the same for COC(=O)C1=C(C)NC(=O)NC1c1cn(-c2ccccc2)nc1-c1ccc(C)cc1 (centres undefined) as well.
>6.4

Please do the same for COC(=O)C1=C(C)NC(=S)NC1c1cn(-c2ccccc2)nc1-c1ccc([N+](=O)[O-])cc1 (centres undefined) as well.
3

Please do the same for CCOC(=O)C1=C(C)NC(=O)NC1c1cn(-c2ccccc2)nc1-c1ccc(F)cc1 (centres undefined) as well.
>500
